System: Raji B cells (Burkitt's lymphoma cells)
Procedure summary: Cytotoxicity, cell count, Raji (Example 4)
Cond: read-out: Cytotoxicity (IC50, μM) Raji; cells counted on the third day
Measurement label: IC50 (µM)
Give the quantity in µM, number only.

Problem: Consider the molecule CN1C(=O)N[C@H]2[C@@H]3NC(=O)c4ccc(Br)n4[C@@H]3C[C@]21O [AA, agelastatin A, reference compound] and give its measured IC50.
Solution: 0.14

###

Quick list: pIC50 per entry.
System: OCI-LY10
Procedure summary: Cell proliferation assay OCI-LY10 (Example 6)
Format: cell-based
Cond: Homo sapiens, OCI-Ly10; cells counted on the sixth day
// pIC50: -log10(molar conc.)

CN1C(=O)N[C@H]2[C@@H]3NC(=O)c4ccc(Cl)n4[C@@H]3C[C@]21O : 6.99
CCN1C(=O)N[C@H]2[C@@H]3NC(=O)c4ccc(Cl)n4[C@@H]3C[C@]21O : 6.92

Problem: Given the entry CCN1C(=O)N[C@H]2[C@@H]3NC(=O)c4cc(Cl)c(Cl)n4[C@@H]3C[C@]21O , report its measured pIC50.
Solution: 6.37

###

The entries below are paired with their reported IC50.
Test system: MB-453
Procedure summary: Cell proliferation assay MB-453 (Example 6)
Assay type: cell-based
Cond: cells counted on the sixth day
Give your result as the value with the unit written after it.

Some compounds with recorded IC50:
CN1C(=O)N[C@H]2[C@@H]3NC(=O)c4ccc(Br)n4[C@@H]3C[C@]21O [AA, agelastatin A, reference compound] : 644 nM
CCN1C(=O)N[C@H]2[C@@H]3NC(=O)c4ccc(Cl)n4[C@@H]3C[C@]21O : 141 nM
CN1C(=O)N[C@H]2[C@@H]3NC(=O)c4ccc(Cl)n4[C@@H]3C[C@]21O : 91.9 nM

Problem: I'd like to know its IC50. The compound in question is CCN1C(=O)N[C@H]2[C@@H]3NC(=O)c4cc(Cl)c(Cl)n4[C@@H]3C[C@]21O
Solution: 104 nM

###

Tested on: MB-468 (triple-negative breast cancer cells)
Procedure summary: Cytotoxicity, cell count, MB-468 (Example 4)
Cond: read-out: Cytotoxicity (IC50, μM) MB-468; cells counted on the third day
Measurement label: IC50 (µM)
Could you give me the number in µM? Just the number is fine.

Problem: Suppose we examine the compound CN1C(=O)N[C@H]2[C@@H]3NC(=O)c4ccc(Br)n4[C@@H]3C[C@]21O [AA, agelastatin A, reference compound] ; what IC50 value has been reported?
Solution: 2.8

###

Tested on: DU145 prostate cancer cells
Procedure summary: Cytotoxicity, MTT method, DU145
Cond: Homo sapiens, DU-145, 24 h, read-out: Cytotoxicity (IC50, μM) DU145
Reported IC50 values for a set of compounds
Please respond with the number in µM and leave the unit unwritten.

Examples with their reported IC50 follow.
CN1C(=O)N[C@H]2[C@@H]3NC(=O)c4ccc(C5CC5)n4[C@@H]3C[C@]21O [CPAA, cyclopropylagelastatin A] : 5
CN1C(=O)N[C@H]2[C@@H]3NC(=O)c4ccc(-c5ccccc5)n4[C@@H]3C[C@]21O [PAA, phenylagelastatin A] : 6

Okay, next one:
Problem: GET /values?readout=IC50&item= CN1C(=O)N[C@H]2[C@@H]3NC(=O)c4ccc(Cl)n4[C@@H]3C[C@]21O [CAA, chloroagelastatin A]
Solution: 1.2
